Literature roundup of Adenosine receptor A2a (Homo sapiens, UniProt P29274) data, read-out Ki.
Report as a plain number; the unit nM is understood.

INSERT INTO assay_data (line_notation, obs_value) VALUES
  ('CC[C@@H](C)Nc1nc2nn(C)cc2c2nc(-c3ccco3)nn12', 272),
  ('COc1cccc(CNc2nc(N)c3nc(-c4cnccn4)sc3n2)c1', 973),
  ('O=C(Cc1ccccc1)Nc1nn2c(-c3ccco3)nnc2s1', 5100);

Please find the next compound below.
Input line: // map O=c1[nH]c(-c2cccc(O)c2)cn2c(=O)n(-c3ccccc3)nc12 to recorded Ki (system: Adenosine receptor A2a (Homo sapiens, UniProt P29274))
Sequence (P29274 whole entry): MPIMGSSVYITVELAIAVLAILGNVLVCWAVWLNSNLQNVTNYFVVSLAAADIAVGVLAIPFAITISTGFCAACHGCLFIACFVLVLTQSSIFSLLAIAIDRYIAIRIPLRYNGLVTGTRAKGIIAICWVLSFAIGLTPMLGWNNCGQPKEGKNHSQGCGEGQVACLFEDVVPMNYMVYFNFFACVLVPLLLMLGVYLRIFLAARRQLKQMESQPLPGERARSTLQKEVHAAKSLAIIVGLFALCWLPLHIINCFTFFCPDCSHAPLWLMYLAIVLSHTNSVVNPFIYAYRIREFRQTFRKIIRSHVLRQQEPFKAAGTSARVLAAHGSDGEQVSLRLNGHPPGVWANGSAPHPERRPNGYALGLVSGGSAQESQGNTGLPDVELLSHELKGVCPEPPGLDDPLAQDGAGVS
Output line: 4070

----------
pKi: −log10 of the molar value.
Literature roundup of UniProt:P29274 data, read-out pKi.
Kindly return label 1 if reported pKi is no lower than 6; return label 0 if it is lower.

INSERT INTO assay_data (compound, label) VALUES
  ('CCNC(=O)[C@H]1O[C@@H](n2cnc3c(Nc4ccc(OCC(=O)Nc5ccc(N6CCOCC6)cc5)cc4)ncnc32)[C@H](O)[C@@H]1O', 'label 0'),
  ('Nc1nc(N2CCC(CNC(=O)c3ccc(S(N)(=O)=O)cc3)CC2)nc2sc(-c3ccco3)nc12', 'label 1'),
  ('Nc1nc(N/N=C/C2CCCC2)nc2c1ncn2[C@@H]1O[C@H](CO)[C@@H](O)[C@H]1O', 'label 1'),
  ('CNc1nc(-n2cc(-c3ccc(Cl)cc3)cn2)nc2c1ncn2C1O[C@H](CO)[C@@H](O)[C@H]1O (stereo not given in full)', 'label 0'),
  ('COc1cccc2cc(C(=O)Nc3c(C#N)ncn3-c3ccc(F)cc3)c(=N)oc12', 'label 1');

Input line: Please tell me: is the compound CC(C)(C)CC(=O)Nc1ccc(C(=O)Nc2nccs2)c(Cl)c1 at or over 6 in terms of pKi?
Output line: label 1

Input line: Please tell me: is the compound CCNC(=O)[C@H]1OC(n2cnc3c(NCCCCNc4ccc([N+](=O)[O-])c5nonc45)ncnc32)[C@H](O)[C@@H]1O (stereo not given in full) at or over 6 in terms of pKi?
Output line: label 0

Input line: Please tell me: is the compound CCC(=O)Nc1cc(-c2cccs2)nc(-c2cccs2)n1 at or over 6 in terms of pKi?
Output line: label 1

----------
Literature roundup of Adenosine receptor A2a (Homo sapiens, UniProt P29274) data, read-out Ki.
// returns NOT MET unless Ki is strictly below 5000 nM, in which case MET

INSERT INTO results (line_notation, target_desc, label) VALUES
  ('Nc1nc(-c2ccccc2)cn2c(=O)n(-c3ccccc3)nc12', 'Adenosine receptor A2a (Homo sapiens, UniProt P29274)', 'MET'),
  ('Nc1nc(N[C@H](CO)Cc2ccccc2)nc2c1ncn2[C@@H]1C[C@H](n2ncc3ccccc32)[C@@H](O)[C@H]1O', 'Adenosine receptor A2a (Homo sapiens, UniProt P29274)', 'NOT MET');

Input line: Record Cc1n[nH]c(C)c1S(=O)(=O)N1CCC(C(=O)Nc2nc3c(C)cccc3s2)CC1 : is its Ki strictly below 5000 nM?
Output line: MET

Input line: Record CC(=O)Oc1ccc2cc(-c3ccccc3)c(=O)oc2c1OC(C)=O : is its Ki strictly below 5000 nM?
Output line: NOT MET

Input line: Record CNC(=O)c1cnc(NC(=O)Cc2ccccc2)n2nc(-c3ccco3)nc12 : is its Ki strictly below 5000 nM?
Output line: MET
